experiment: Half life in human at 0.25 mg, iv administered as single dose measured up to 168 hrs; assay type: ADME, organism-based; conditions: in vivo
readout_kind: half-life (h)

molecule	unit	val
C[C@@H]1C[C@H]2[C@@H]3C[C@H](F)C4=CC(=O)C=C[C@]4(C)[C@@]3(F)[C@@H](O)C[C@]2(C)[C@@]1(OC(=O)c1ccco1)C(=O)SCF [FLUTICASONE FUROATE]	h	15.3

* * *

target: Alanine racemase, biosynthetic (Escherichia coli K-12); assay: Substrate activity at Escherichia coli B alanine racemase assessed as partition ratio by measuring ratio of turnover rate to inactivation rate
Sequence (P0A6B4 whole entry): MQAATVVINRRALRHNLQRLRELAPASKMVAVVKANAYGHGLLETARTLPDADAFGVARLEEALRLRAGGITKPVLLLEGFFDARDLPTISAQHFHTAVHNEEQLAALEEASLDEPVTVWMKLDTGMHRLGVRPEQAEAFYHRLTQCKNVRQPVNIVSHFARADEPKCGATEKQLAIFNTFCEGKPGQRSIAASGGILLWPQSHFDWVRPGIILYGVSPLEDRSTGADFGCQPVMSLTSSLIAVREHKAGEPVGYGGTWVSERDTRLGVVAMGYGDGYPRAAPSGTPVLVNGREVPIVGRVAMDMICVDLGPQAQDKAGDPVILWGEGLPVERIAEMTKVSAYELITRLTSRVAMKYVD
Listing of recorded Ratio by entry.
readout_kind: Ratio

molecule	readout_kind	val
N[C@@H](CF)C(=O)O	Ratio	790
NC(C(=O)O)C(F)(F)F (racemic)	Ratio	10
N[C@H](C(=O)O)C(F)F	Ratio	5000
N[C@@H](C(=O)O)C(F)F	Ratio	2600
N[C@H](CF)C(=O)O	Ratio	810
